- Test system: Oryza sativa
- Experimental Protocol: Phytotoxicity against two-leaf stage Oryza sativa cv. Nihonbare (rice) planted 3 cm depth measured after […]
- Assay type: organism-based
- Conditions: in vivo
Experimental Endpoint: MTD

Observe how each entry below is paired with its result.
> print(dat)
                           smiles.structure      value
1  CC1=C(/C=C/c2ccccc2)C(=O)N(C(C)(C)c2nc3ccccc3s2)C1  80 g/acre
2  CC1=C(c2ccc(-c3ccccc3)cc2)C(=O)N(C(C)(C)c2nc3ccccc3s2)C1  80 g/acre
3  CC(C)(c1nc2ccccc2s1)N1CC(C(F)(F)F)=C(c2ccccc2)C1=O  10 g/acre

Lab note: each compound below needs its MTD filled in.
1. CC1=C(c2ccccc2)C(=O)N(C(C)(C)c2nc3ccc(Cl)cc3s2)C1
2. CC(=O)OC1=C(c2ccccc2)C(=O)N(C(C)(C)c2nc3ccccc3s2)C1
3. CC1=C(c2ccccc2)C(=O)N(C(C)(C)c2nc3c(Cl)cccc3s2)C1

Result ::
1: 40 g/acre; 2: < 20 g/acre; 3: 10 g/acre

Lab note: each compound below needs its MTD filled in.
1. CC1=C(c2ccccc2)C(=O)N(C(C)(C)c2nc3c(C)cccc3s2)C1
2. COc1ccc2nc(C(C)(C)N3CC(C)=C(c4ccccc4)C3=O)sc2c1
3. CC1=C(c2ccccc2)C(=O)N(C(C)(C)c2nc3ccc(F)cc3s2)C1
4. CC1=C(c2ccccc2)C(=O)N(C(C)(C)c2nc3cc(C#N)ccc3s2)C1

Result ::
20 g/acre
10 g/acre
20 g/acre
10 g/acre

###

- Test system: Oryza sativa
- Experimental Protocol: Phytotoxicity against two-leaf stage Oryza sativa cv. Nihonbare (rice) planted 1 cm depth measured after […]
- Type: organism-based
- Conditions: in vivo
Param label: returns condition met when MTD < 20 g/acre, returns condition not met otherwise, including exact equality.

Please review the following examples before continuing.
> print(dat)
                           smiles.structure                cat
1  CC1=C(Oc2ccccc2)C(=O)N(C(C)(C)c2nc3ccccc3s2)C1  condition not met
2  CC1=C(c2ccccc2)C(=O)N(C(C)(C)c2cc3ccccc3s2)C1      condition met
3  CC1=C(c2cccc3ccccc23)C(=O)N(C(C)(C)c2nc3ccccc3s2)C1  condition not met

Query :: Lab note: confirm whether the reported MTD for this molecule is below 20 g/acre, equality not counting. molecule: CC1=C(c2ccccc2)C(=O)N(C(C)(C)c2nc3cc(C)ccc3s2)C1
Result :: condition met

Query :: Lab note: confirm whether the reported MTD for this molecule is below 20 g/acre, equality not counting. molecule: CC1=C(Oc2ccc(Cl)cc2)C(=O)N(C(C)(C)c2nc3ccccc3s2)C1
Result :: condition not met

Query :: Lab note: confirm whether the reported MTD for this molecule is below 20 g/acre, equality not counting. molecule: CC1=C(c2ccccc2)C(=O)N(C(C)(C)c2nc3cc(Cl)ccc3s2)C1
Result :: condition met

Query :: Lab note: confirm whether the reported MTD for this molecule is below 20 g/acre, equality not counting. molecule: CC1=C(c2cccc([N+](=O)[O-])c2)C(=O)N(C(C)(C)c2nc3ccccc3s2)C1
Result :: condition not met

Query :: Lab note: confirm whether the reported MTD for this molecule is below 20 g/acre, equality not counting. molecule: CC1=C(c2ccccc2)C(=O)N(C(C)(C)c2ncc(-c3ccc(Cl)cc3)s2)C1
Result :: condition not met

Query :: Lab note: confirm whether the reported MTD for this molecule is below 20 g/acre, equality not counting. molecule: CC1=C(c2ccccc2)C(=O)N(C(C)(C)c2cccs2)C1
Result :: condition met

Query :: Lab note: confirm whether the reported MTD for this molecule is below 20 g/acre, equality not counting. molecule: CC1=C(c2ccccc2)C(=O)N(C(C)(C)c2nc3cc(C#N)ccc3s2)C1
Result :: condition not met

Query :: Lab note: confirm whether the reported MTD for this molecule is below 20 g/acre, equality not counting. molecule: CC1=C(c2ccccc2)C(=O)N(C(C)(C)c2csc3ccccc23)C1
Result :: condition met

Query :: Lab note: confirm whether the reported MTD for this molecule is below 20 g/acre, equality not counting. molecule: CC1=C(c2ccccc2)C(=O)N(C(C)(C)c2cc3ccccc3o2)C1
Result :: condition met

Query :: Lab note: confirm whether the reported MTD for this molecule is below 20 g/acre, equality not counting. molecule: CC1=C(c2ccccc2)C(=O)N(C(C)(C)c2ncc(C(F)(F)F)cc2Cl)C1
Result :: condition met

Query :: Lab note: confirm whether the reported MTD for this molecule is below 20 g/acre, equality not counting. molecule: CC1=C(c2ccccc2C(=O)O)C(=O)N(C(C)(C)c2nc3ccccc3s2)C1
Result :: condition not met

Query :: Lab note: confirm whether the reported MTD for this molecule is below 20 g/acre, equality not counting. molecule: CC1=C(c2ccccc2)C(=O)N(C(C)(C)c2nc3ccc(F)cc3s2)C1
Result :: condition met
